Recorded values, source PubChem BioAssay (NCI).

# Tested on: 786-0 renal
# assay_comment: NCI-60 one-dose screen, 48 h
# recorded_conditions: 10 µM unless noted
About 83,000 compounds went through this panel and 20% of them were active in at least one assay; those are over-represented in the sample as a whole. Calls of active or inactive are those of the source. Rule for the calls: active = growth percent below 10; inactive = the rest.
Respond only with the outcome that fits, drawn from Y = active, N = inactive

INSERT INTO results (compound, system_tested, class_name) VALUES
  ('Cc1cccc[n+]1C1c2ccccc2-c2ccccc21', '786-0 renal', 'N'),
  ('C=C1C(=O)O[C@H]2[C@H]1CC/C(COC(=O)/C=C\C(=O)NCc1ccc(Cn3c(=O)sn(CCCl)c3=O)cc1)=C\CC[C@@]1(C)O[C@@H]21', '786-0 renal', 'N'),
  ('CCCCCCCCCCCCCCCCCCOc1ccccc1CC(=O)NCC[N+]1(C)CCCCC1', '786-0 renal', 'N'),
  ('CCc1ccc(CCC(=O)Nc2ncc(Cc3cc(Cl)ccc3Cl)s2)o1', '786-0 renal', 'N'),
  ('O=C(Nc1cc(Cl)ccc1O)c1cccc(Nc2ccnc(C(F)(F)F)c2)c1', '786-0 renal', 'N'),
  ('C#CCOc1cccc(-c2ncnc3cc(NC(=O)C=C)ccc23)c1', '786-0 renal', 'N');

Let us examine a further case.
Query string: Recorded call for "Cc1cccc(Oc2ccc(Nc3ncnc4ccc(NC(=O)CN5CCN(C)CC5)cc34)cc2Cl)c1" ?
Result string: Y
